- System: Mus musculus
- procedure text: Anticonvulsant activity in ip dosed pentylenetetrazole induced seizure mouse model assessed as no observable episode of clonic convulsion of at least 5 secs
- Type: functional
Consider the following compounds; for each one, report its ED50.

# query: ED50 | item O=C(/C=C/c1ccc(Cl)cc1)N[C@H]1CC[C@H](O)CC1 | system: Mus musculus
317 mg/kg

# query: ED50 | item CC(O)CNC(=O)/C=C/c1ccc(Cl)cc1 (centres undefined) | system: Mus musculus
102 mg/kg

# query: ED50 | item Cc1ccccc1/C=C/C(=O)N[C@@H](C)CO | system: Mus musculus
58.4 mg/kg

# query: ED50 | item CCC(CO)NC(=O)/C=C/c1ccc(Cl)cc1 (centres undefined) | system: Mus musculus
90.3 mg/kg
